biological target: APOBEC3A D131T (Homo sapiens, UniProt P31941 SEQ:1-199, D131T); assay: deamination, 50 nM enzyme, 1 h 37 C; conditions: tags: myc-His, 293T; label: 3'-fluorescein
Sequence (P31941 whole entry D131T): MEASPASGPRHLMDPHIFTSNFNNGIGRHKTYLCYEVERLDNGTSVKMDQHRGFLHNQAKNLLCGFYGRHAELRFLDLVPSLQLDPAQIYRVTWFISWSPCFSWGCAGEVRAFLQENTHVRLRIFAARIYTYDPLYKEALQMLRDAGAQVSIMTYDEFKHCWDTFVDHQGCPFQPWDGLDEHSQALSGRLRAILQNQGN
reportedProperty: activity
Give the value; after it, write the unit.

1) ATTATTATTATGCAAATGGATTTATTTATTTATTTATTTATTT (ssDNA) [-1 GCA substrate] : 14.2 % product
2) ATTATTATTATTCAAATGGATTTATTTATTTATTTATTTATTT (ssDNA) [-1 TCA substrate] : 96.6 % product
3) ATTATTATTATCCAAATGGATTTATTTATTTATTTATTTATTT (ssDNA) [-1 CCA substrate] : 67.5 % product

Query: activity; subject: ATTATTATTATACAAATGGATTTATTTATTTATTTATTTATTT (ssDNA) [-1 ACA substrate]
16.6 % product
